tested on: Hepatitis C virus; experiment: Antiviral activity against Hepatitis C virus genotype 1b infected in human HuH5.2 cells after 72 hrs by luciferase reporter gene assay; type: functional, cell-based, Hepacivirus hominis; details: Hepatitis C virus, genotype 1b, Huh-5-2, 72 h
EC90 strictly less than 3 µM = criterion met. Otherwise criterion not met.

>>> category("O=C(NNc1ncnc2sc3c(c12)CCC3)c1cc(O)ccc1O")
"criterion not met"
>>> category("C/C(=N\\Nc1ncnc2sc3c(c12)CCCC3)c1cnccn1")
"criterion met"
>>> category("C/C(=N\\Nc1ncnc2sc3c(c12)CCCC3)c1ccc(O)cc1")
"criterion not met"
>>> category("C/C(=N\\Nc1ncnc2sc3ccccc3c12)c1nc2ccccc2[nH]1")
"criterion not met"
>>> category("COc1ccc(C(N)=O)cc1NS(=O)(=O)c1cccc2cccnc12")
"criterion not met"
>>> category("COc1ccc(-c2c(C#N)c(SCC(N)=O)nc3c2CCCC3)cc1")
"criterion not met"
>>> category("O=C(Nc1ccc(S(=O)(=O)O)c2ccccc12)c1ccc(C(=O)Nc2ccc(S(=O)(=O)O)c3ccccc23)cc1")
"criterion not met"
>>> category("O=C(NNc1ncnc2sc3c(c12)CCCC3)c1cnccn1")
"criterion not met"
>>> category("C/C(=N\\Nc1nc(C)nc2sc3c(c12)CCCC3)c1ccccc1O")
"criterion not met"
>>> category("O=C(NNc1ncnc2sc3c(c12)CCCC3)c1cccc(O)c1")
"criterion not met"
>>> category("O=C(NNc1ncnc2sccc12)c1ccccn1")
"criterion met"
>>> category("O=C(NNc1ncnc2sc3c(c12)CCCC3)c1ccccn1")
"criterion met"
>>> category("O=C(NNc1ncnc2sccc12)c1cc(O)ccc1O")
"criterion not met"
>>> category("C/C(=N\\Nc1ncnc2sc3ccccc3c12)c1cnccn1")
"criterion met"
>>> category("Cc1c(Cl)sc2ncnc(NNC(=O)c3ccccn3)c12")
"criterion met"
>>> category("C/C(=N/Nc1ncnc2sc3c(c12)CCC3)c1cnccn1")
"criterion met"
>>> category("C/C(=N\\Nc1ncnc2sc3c(c12)CCCC3)c1ccccn1")
"criterion not met"
>>> category("c1ccc2c(Nc3ncnc4sc5c(c34)CCCC5)cccc2c1")
"criterion not met"
>>> category("C/C(=N/Nc1ncnc2sc(C)c(C)c12)c1cc(O)ccc1O")
"criterion not met"
>>> category("O=C(NNc1ncnc2sc3c(c12)CCCC3)c1ccccc1O")
"criterion met"
>>> category("O=C(NNc1ncnc2sc3c(c12)CCCC3)c1cccnc1")
"criterion not met"
>>> category("C/C(=N/Nc1ncnc2sccc12)c1cc(O)ccc1O")
"criterion not met"
